The origin of these recorded values is patent US20150056222A1.

- measurement-target: T1, monkey (macaca fascicularis) PRLR on HEK293 cells (macaca fascicularis, UniProt A0A2K5WXK1 25-619)
- T1 construct: also called mfPRLR; HEK293/mfPRLR
- T1 sequence: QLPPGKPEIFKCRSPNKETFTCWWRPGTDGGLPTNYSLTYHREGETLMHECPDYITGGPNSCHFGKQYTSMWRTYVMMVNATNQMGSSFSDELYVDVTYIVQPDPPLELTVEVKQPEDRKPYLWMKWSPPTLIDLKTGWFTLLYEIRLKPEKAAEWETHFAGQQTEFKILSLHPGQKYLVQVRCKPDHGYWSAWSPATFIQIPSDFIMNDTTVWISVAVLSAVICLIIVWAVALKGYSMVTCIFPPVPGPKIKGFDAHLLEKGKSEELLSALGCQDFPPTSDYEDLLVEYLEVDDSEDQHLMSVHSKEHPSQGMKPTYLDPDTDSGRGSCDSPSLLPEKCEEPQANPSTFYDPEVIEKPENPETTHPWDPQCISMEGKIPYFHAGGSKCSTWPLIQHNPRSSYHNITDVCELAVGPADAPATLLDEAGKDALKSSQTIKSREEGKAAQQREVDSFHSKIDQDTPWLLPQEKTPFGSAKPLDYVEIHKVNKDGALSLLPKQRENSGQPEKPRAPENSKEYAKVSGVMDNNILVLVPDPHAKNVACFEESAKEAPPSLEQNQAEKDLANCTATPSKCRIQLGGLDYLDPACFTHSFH
- method-description: FACS, HEK293/mfPRLR cells; note: test concentration or dose not given here
measured-property: FACS Cell Binding (Fold Above Background) (fold above background)
Just the number in fold above background, nothing appended.

Exercise: Look at this binder and give its reported FACS Cell Binding (Fold Above Background). H1H6782P (antibody, human IgG1, V domains shown, human IgG1 Fc (H1H)) VH: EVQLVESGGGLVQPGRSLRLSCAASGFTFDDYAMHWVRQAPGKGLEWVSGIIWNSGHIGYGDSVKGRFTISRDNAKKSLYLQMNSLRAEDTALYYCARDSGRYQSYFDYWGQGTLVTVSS VL: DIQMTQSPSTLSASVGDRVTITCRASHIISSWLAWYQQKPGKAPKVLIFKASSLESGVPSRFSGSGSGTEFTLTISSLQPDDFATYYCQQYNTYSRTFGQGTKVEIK
Solution: 32

Exercise: Note, next up: H1H6976N (antibody, human IgG1, V domains shown, also called H2M6976N) VH: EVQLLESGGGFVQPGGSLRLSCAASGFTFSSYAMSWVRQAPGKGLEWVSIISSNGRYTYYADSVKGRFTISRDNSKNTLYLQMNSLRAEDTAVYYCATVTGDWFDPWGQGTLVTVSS VL: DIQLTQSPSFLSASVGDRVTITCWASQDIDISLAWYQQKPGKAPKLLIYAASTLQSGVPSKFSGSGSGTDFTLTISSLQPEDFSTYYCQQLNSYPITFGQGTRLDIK
Solution: 29

Exercise: Note, next up: H1H6765P (antibody, human IgG1, V domains shown, human IgG1 Fc (H1H)) VH: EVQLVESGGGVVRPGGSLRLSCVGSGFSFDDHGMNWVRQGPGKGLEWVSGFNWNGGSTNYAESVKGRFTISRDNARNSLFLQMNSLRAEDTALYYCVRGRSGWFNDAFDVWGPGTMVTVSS VL: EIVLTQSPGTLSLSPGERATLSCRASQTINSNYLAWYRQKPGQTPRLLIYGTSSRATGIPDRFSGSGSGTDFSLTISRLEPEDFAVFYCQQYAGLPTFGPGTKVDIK
Solution: 27
